STUDY TARGET: T1, human insulin-like growth factor binding protein 4 (IBP4) (human, UniProt P22692 22-258)
T1 construct: also called IBP4 protein; IGFBP4
T1 sequence: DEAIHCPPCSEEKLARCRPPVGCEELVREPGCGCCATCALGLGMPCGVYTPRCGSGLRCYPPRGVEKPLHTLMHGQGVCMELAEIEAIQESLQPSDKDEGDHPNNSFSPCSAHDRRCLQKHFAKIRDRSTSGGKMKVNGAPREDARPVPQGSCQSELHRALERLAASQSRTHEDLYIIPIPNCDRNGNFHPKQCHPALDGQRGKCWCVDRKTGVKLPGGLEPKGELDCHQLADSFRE
EXPERIMENTAL DETAILS: AC-MS, mAb on M-PVA beads, pooled pregnant serum
OUTCOME MEASURE: ave IBP4 AC-MS RR
Give only the figure.

Query string: Entry under review: anti-IBP4 antibody 7G11.H4 (antibody, mouse IgG1, kappa, V domains shown, Mouse hybridoma mAb raised against FL IBP4; also called IBP4-7G11.H4) VH: QVQLQQSGAELVRPGASVTLSCKASGYTFTDYEMHWVRQTPVHGLEWIGAIDTETGGPAYNQKFKGKAILTADKSSSTAYMELRSLTSEDSAVYFCTRARGSRSVYYFDNWGQGTTLTVSS VL: DIVMTQSQKFMSTSVGDRVSVTCKASQNVDTNIAWYQQKPGHSPKALIYSASYRYSGVPDRFTGSGSGTDFTLTIGNVQSEDLADYFCQQYDTYPLTFGSGTKLEIKR . Reported ave IBP4 AC-MS RR?
Result string: 0.525

Query string: Entry under review: anti-IBP4 antibody 3D4.E9 (antibody, mouse IgG2b, kappa, V domains shown, Mouse hybridoma mAb raised against FL IBP4; also called IBP4-3D4.E9) VH: QVQLQQSGAELVRPGASVTLSCKASGYTFTDYEMHWVKQTPVHGLEWIGAIDPETGGAAYNQKFKGKAILTADKSSSTAYMELRSLTSEDSAVYYCTRARGSSSVYYFDYWGQGTTLTVSS VL: DIVMTQSQKFMSTSVGDRVSVTCKASQNVGTNVAWYQQKPGQSPKALIYSTSYRYSGVPDRFTGSRSGTDFILTISNVQSEDLAEYFCQQYDSYPLTFGSGTKLEIKR . Reported ave IBP4 AC-MS RR?
Result string: 0.439

Query string: Entry under review: anti-IBP4 antibody 5C11.A7 (antibody, mouse IgG1, kappa, V domains shown, Mouse hybridoma mAb raised against FL IBP4; also called IBP4-5C11.A7) VH: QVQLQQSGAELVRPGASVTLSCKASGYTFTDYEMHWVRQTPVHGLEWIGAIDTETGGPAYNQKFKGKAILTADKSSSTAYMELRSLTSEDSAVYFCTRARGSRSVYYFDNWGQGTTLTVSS VL: DIVMTQSQKFMSTSVGDRVSVTCKASQNVGTNVAWYQQKPGHSPKVLIYSASYRHSGVPDRFTGSGSGTDFTLTIGNVQSEDLADYFCQQYDTYPLTFGSGTKLEIKR . Reported ave IBP4 AC-MS RR?
Result string: 0.548

Query string: Entry under review: anti-IBP4 antibody 1H9.B6 (antibody, mouse IgG1, kappa, V domains shown, Mouse hybridoma mAb raised against FL IBP4; also called IBP4-1H9.B6) VH: EVQLQQSGPELVKPGASVKISCKTSGYTFTDYYMNWVKQSHGKSLEWIGDINPNNGGAGYNQKFKGKATLTVDKSSSTAYMELRSLTSEDSAVYYCARWGWDRYFDYWGQGTTLTVSS VL: DIVMTQSQKFMSTSVGDRVSVTCKASQNVGIDVAWYQQKPGQSPKALIYSASYRSSGVPDRFTGSGSGTDFTLTINNVQSEDLAEYFCQQYNSYPLAFGSGTKLEIKR . Reported ave IBP4 AC-MS RR?
Result string: 0.588
